- measurementProtocol: Quantitative High-Throughput drug screen in 47 multiple myeloma cell lines against the NCATS MIPE library collection: PE2_PLB cell viability assay (AID 1919869); also: nearly all actives have a fitted effect of over 35% in size
- conditionNotes: PE2_PLB myeloma cells viability, ATP luminescence, 48 h; series mostly up to 45.8 µM
- Description: PI: Beverly A. Mock Ph.D. Laboratory of Cancer Biology and Genetics, Center for Cancer Research, National Cancer Institute, National Institute of Health, Bethesda, Maryland […] 5; Detector; 425V; Luminescence; Viewlux PerkinElmer. […] 1. […] Briefly, the corresponding myeloma cell lines were screened in 1,536-well plates with 500 cells, 5-uL per well for inhibition of cell viability (assessed by measuring ATP levels with CellTiterGlo). […]
Records with an inconclusive call do not appear. The source made the active and inactive calls. Calls follow the shape of the dose curve; as a rule, active = well fitted cell-killing curve with a large enough effect; inconclusive = small, poorly fitted or top-dose-only effect, or effect the other way; inactive = no such curve, though single readings can be large or run the other way.
Outcome codes: active, inactive

>>> df
                                   compound  grouplabel
0  O=C(O)COCCN1CCN(C(c2ccccc2)c2ccc(Cl)cc2)CC1 (centres undefined)    inactive
1  Nc1ncnc2nc(-c3ccc(N4CCOCC4)nc3)cc(-c3cccc(Br)c3)c12      active
2  O=c1ncn2nc(Sc3ccc(F)cc3F)ccc2c1-c1c(Cl)cccc1Cl      active
3                      O=NN(CCCl)C(=O)NCCCl    inactive

###

- measurementProtocol: Quantitative High-Throughput drug screen in 47 multiple myeloma cell lines against the NCATS MIPE library collection: XG1_PLB cell viability assay (AID 1919866); also: nearly all actives have a fitted effect of over 35% in size
- conditionNotes: CellTiter-Glo ATP, 48 h; series mostly up to 45.8 µM
Results filed as inconclusive are left out. Active and inactive are the calls of the source. Calls come from the whole dose curve; as a rule, active = well fitted cell-killing curve with a large enough effect; inconclusive = small, poorly fitted or top-dose-only effect, or effect the other way; inactive = no such curve, though single readings can be large or run the other way.
Classes used: t = active, f = inactive

>>> df
                                    molecule  grouplabel
 0  Cn1cnc2c(F)c(Nc3ccc(Br)cc3Cl)c(C(=O)NOCCO)cc21           t
 1  CCC(C)N(C)C(=O)c1cc2ccccc2c(-c2ccccc2Cl)n1 (stereo unspecified)           t
 2  CC(C)NCC(O)COc1ccc(COCCOC(C)C)cc1 (stereo unspecified)           f
 3  Cc1c(CN2CCN(C(=O)C(C)C)CC2)sc2c(N3CCOCC3)nc(-c3cnc(N)nc3)nc12           t
 4                               Cc1cn[nH]c1           t
 5  Cc1c(CCOc2ccc(C(=O)O)cc2)c2cc(Cl)ccc2n1C(c1ccccc1)c1ccccc1           f
 6  NC(=O)C1CCCc2c1[nH]c1ccc(Cl)cc21 (stereo unspecified)           t
 7  OCCn1cc(-c2cnc3nnn(Cc4ccc5ncccc5c4)c3n2)cn1           f
 8  COCC(=O)NCC=Cc1ccc2ncnc(Nc3ccc(Oc4ccc(C)nc4)c(C)c3)c2c1           t
 9  Cc1csc(NC(=O)c2sc3nc4c(c(C(F)(F)F)c3c2N)CCC4)n1           t
10  CCOC(=O)C1=C[C@]2(CC)CCCN3CCc4c(n1c1ccccc41)[C@@H]32           t
11  OCCC#Cc1nc(-c2ccc(F)cc2)c(-c2ccncc2)n1CCCc1ccccc1           t
12  CS(=O)(=O)c1ccc(C(=O)Nc2ccc(Cl)c(-c3ccccn3)c2)c(Cl)c1           t
13  COc1nc(-c2ccc3c(c2)OCO3)n(-c2ccc(NC(=O)CSc3ccccc3)cc2)n1           f
14  CCCCNc1cc(C(=O)O)cc(S(N)(=O)=O)c1Oc1ccccc1           f
15  O=C1CCC(N2C(=O)c3ccccc3C2=O)C(=O)N1 (stereo unspecified)           t
